# AUC(0-inf) listing for each entry below
test: clinical; details: human, in vivo, iv, 190 mg/m2
# unit: µg·h/mL | format: bare number

Molecule	AUC(0-inf) / µg·h/mL
CC(=O)O[C@@]12CO[C@@H]1C[C@H](O)[C@@]1(C)C(=O)[C@H](O)C3=C(C)[C@@H](OC(=O)[C@H](O)[C@@H](NC(=O)OC(C)(C)C)c4ccccc4)C[C@@](O)([C@@H](OC(=O)c4ccccc4)[C@H]21)C3(C)C	18.8

Shift focus to the following entry.
Prompt line: Return reported AUC(0-inf). Input compound: `CC(=O)O[C@@]12CO[C@@H]1C[C@H](O)[C@@]1(C)C(=O)[C@H](O)C3=C(C)[C@@H](OC(=O)[C@H](OC(=O)CN4CCN(C)CC4)[C@@H](NC(=O)OC(C)(C)C)c4ccccc4)C[C@@](O)([C@@H](OC(=O)c4ccccc4)[C@H]21)C3(C)C`
Response line: 9810

###

assay: clinical; settings: human, in vivo, iv, 320 mg/m2
# AUC(0-inf) listing for each entry below
# unit: µg·h/mL | format: bare number

Compound	Meas value
CC(=O)O[C@@]12CO[C@@H]1C[C@H](O)[C@@]1(C)C(=O)[C@H](O)C3=C(C)[C@@H](OC(=O)[C@H](OC(=O)CN4CCN(C)CC4)[C@@H](NC(=O)OC(C)(C)C)c4ccccc4)C[C@@](O)([C@@H](OC(=O)c4ccccc4)[C@H]21)C3(C)C [TD-1]	13000

Shift focus to the following entry.
Prompt line: Return reported AUC(0-inf). Input compound: CC(=O)O[C@@]12CO[C@@H]1C[C@H](O)[C@@]1(C)C(=O)[C@H](O)C3=C(C)[C@@H](OC(=O)[C@H](O)[C@@H](NC(=O)OC(C)(C)C)c4ccccc4)C[C@@](O)([C@@H](OC(=O)c4ccccc4)[C@H]21)C3(C)C [Docetaxel, docetaxel]
Response line: 37.6

###

# Cmax listing for each entry below
assay: clinical; settings: human, in vivo, iv, 6 mg/m2
# unit: ng/mL | format: bare number

Compound	Units symbol	Cmax
CC(=O)O[C@@]12CO[C@@H]1C[C@H](O)[C@@]1(C)C(=O)[C@H](O)C3=C(C)[C@@H](OC(=O)[C@H](O)[C@@H](NC(=O)OC(C)(C)C)c4ccccc4)C[C@@](O)([C@@H](OC(=O)c4ccccc4)[C@H]21)C3(C)C [Docetaxel, docetaxel]	ng/mL	36.3

Shift focus to the following entry.
Prompt line: Return reported Cmax. Input compound: CC(=O)O[C@@]12CO[C@@H]1C[C@H](O)[C@@]1(C)C(=O)[C@H](O)C3=C(C)[C@@H](OC(=O)[C@H](OC(=O)CN4CCN(C)CC4)[C@@H](NC(=O)OC(C)(C)C)c4ccccc4)C[C@@](O)([C@@H](OC(=O)c4ccccc4)[C@H]21)C3(C)C [TD-1]
Response line: 3150

###

test: clinical; conditions: human, in vivo, iv, 3 mg/m2
Observed property: Cmax
Hi, when you answer, please include the unit after the number. Thanks!

Molecule	Meas value
CC(=O)O[C@@]12CO[C@@H]1C[C@H](O)[C@@]1(C)C(=O)[C@H](O)C3=C(C)[C@@H](OC(=O)[C@H](O)[C@@H](NC(=O)OC(C)(C)C)c4ccccc4)C[C@@](O)([C@@H](OC(=O)c4ccccc4)[C@H]21)C3(C)C	15.5 ng/mL

Prompt line: Return reported Cmax. Input compound: `CC(=O)O[C@@]12CO[C@@H]1C[C@H](O)[C@@]1(C)C(=O)[C@H](O)C3=C(C)[C@@H](OC(=O)[C@H](OC(=O)CN4CCN(C)CC4)[C@@H](NC(=O)OC(C)(C)C)c4ccccc4)C[C@@](O)([C@@H](OC(=O)c4ccccc4)[C@H]21)C3(C)C`
Response line: 1520 ng/mL

###

assay: clinical; details: human, in vivo, iv, 48 mg/m2
# Cmax listing for each entry below
# unit: µg/mL | format: bare number

Molecule	Observed property	Units symbol	Meas value
CC(=O)O[C@@]12CO[C@@H]1C[C@H](O)[C@@]1(C)C(=O)[C@H](O)C3=C(C)[C@@H](OC(=O)[C@H](OC(=O)CN4CCN(C)CC4)[C@@H](NC(=O)OC(C)(C)C)c4ccccc4)C[C@@](O)([C@@H](OC(=O)c4ccccc4)[C@H]21)C3(C)C	Cmax	µg/mL	30.7

Shift focus to the following entry.
Prompt line: Return reported Cmax. Input compound: `CC(=O)O[C@@]12CO[C@@H]1C[C@H](O)[C@@]1(C)C(=O)[C@H](O)C3=C(C)[C@@H](OC(=O)[C@H](O)[C@@H](NC(=O)OC(C)(C)C)c4ccccc4)C[C@@](O)([C@@H](OC(=O)c4ccccc4)[C@H]21)C3(C)C`
Response line: 0.187

###

# AUC(0-inf) listing for each entry below
test: clinical; settings: human, in vivo, iv, 225 mg/m2

Molecule	AUC(0-inf)
CC(=O)O[C@@]12CO[C@@H]1C[C@H](O)[C@@]1(C)C(=O)[C@H](O)C3=C(C)[C@@H](OC(=O)[C@H](O)[C@@H](NC(=O)OC(C)(C)C)c4ccccc4)C[C@@](O)([C@@H](OC(=O)c4ccccc4)[C@H]21)C3(C)C [Docetaxel, docetaxel]	33.9 µg·h/mL

Prompt line: Return reported AUC(0-inf). Input molecule: CC(=O)O[C@@]12CO[C@@H]1C[C@H](O)[C@@]1(C)C(=O)[C@H](O)C3=C(C)[C@@H](OC(=O)[C@H](OC(=O)CN4CCN(C)CC4)[C@@H](NC(=O)OC(C)(C)C)c4ccccc4)C[C@@](O)([C@@H](OC(=O)c4ccccc4)[C@H]21)C3(C)C [TD-1]
Response line: 13200 µg·h/mL

###

assay: clinical; conditions: human, in vivo, iv, 24 mg/m2
Observed property: AUC(0-inf)

Prompt line: Return reported AUC(0-inf). Input molecule: `CC(=O)O[C@@]12CO[C@@H]1C[C@H](O)[C@@]1(C)C(=O)[C@H](O)C3=C(C)[C@@H](OC(=O)[C@H](OC(=O)CN4CCN(C)CC4)[C@@H](NC(=O)OC(C)(C)C)c4ccccc4)C[C@@](O)([C@@H](OC(=O)c4ccccc4)[C@H]21)C3(C)C`
Response line: 955 µg·h/mL

###

# Cmax listing for each entry below
experiment: clinical; settings: human, in vivo, iv, 190 mg/m2
# unit: µg/mL | format: bare number

Molecule	Cmax, µg/mL
CC(=O)O[C@@]12CO[C@@H]1C[C@H](O)[C@@]1(C)C(=O)[C@H](O)C3=C(C)[C@@H](OC(=O)[C@H](O)[C@@H](NC(=O)OC(C)(C)C)c4ccccc4)C[C@@](O)([C@@H](OC(=O)c4ccccc4)[C@H]21)C3(C)C	1.13

Shift focus to the following entry.
Prompt line: Return reported Cmax. Input molecule: `CC(=O)O[C@@]12CO[C@@H]1C[C@H](O)[C@@]1(C)C(=O)[C@H](O)C3=C(C)[C@@H](OC(=O)[C@H](OC(=O)CN4CCN(C)CC4)[C@@H](NC(=O)OC(C)(C)C)c4ccccc4)C[C@@](O)([C@@H](OC(=O)c4ccccc4)[C@H]21)C3(C)C`
Response line: 143

###

test: clinical; conditions: human, in vivo, iv, 12 mg/m2, t1/2
Observed property: half-life (h)
# unit: h | format: bare number

Compound	Observed property	Meas value
CC(=O)O[C@@]12CO[C@@H]1C[C@H](O)[C@@]1(C)C(=O)[C@H](O)C3=C(C)[C@@H](OC(=O)[C@H](OC(=O)CN4CCN(C)CC4)[C@@H](NC(=O)OC(C)(C)C)c4ccccc4)C[C@@](O)([C@@H](OC(=O)c4ccccc4)[C@H]21)C3(C)C [TD-1]	half-life	44

Shift focus to the following entry.
Prompt line: Return reported half-life. Input compound: CC(=O)O[C@@]12CO[C@@H]1C[C@H](O)[C@@]1(C)C(=O)[C@H](O)C3=C(C)[C@@H](OC(=O)[C@H](O)[C@@H](NC(=O)OC(C)(C)C)c4ccccc4)C[C@@](O)([C@@H](OC(=O)c4ccccc4)[C@H]21)C3(C)C [Docetaxel, docetaxel]
Response line: 12.3

Source of measurements: patent US20160250177A1
